From: patent US11241507B2

- PROCEDURE_SUMMARY: Chemiluminescence properties of NIR luminophores under physiological conditions
- Type: physicochemical
REPORTED_PROPERTY: pKa

# MOLECULE, pKa
data = [
    ("COC1(c2cc(O)c(/C=C/C(=O)O)cc2/C=C/C2=CC(=C(C#N)C#N)c3ccccc3O2)OOC12C1CC3CC(C1)CC2C3 (stereo not shown)", 7.35),
    ("COC1(c2ccc(/C=C/C3=CC(=C(C#N)C#N)c4ccccc4O3)c(O)c2Cl)OOC12C1CC3CC(C1)CC2C3 (stereo not shown)", 6.72),
    ("COC1(c2cc(O)c(/C=C/C(=O)O)cc2/C=C/C2=C(C#N)C(=C(C#N)C#N)OC2(C)C)OOC12C1CC3CC(C1)CC2C3 (stereo not shown)", 7.71),
]
